Hey, just so you know, these numbers are from patent US6737383B1.

Test system: duck salad
ASSAY_PROCEDURE: Test B flood test duck salad
Assay type: in vivo, Heteranthera limosa
CONDITION_DETAILS: Rate 500 g/ha, Pre-emergence section of Table B; 0 to 10 scale (0 no effect, 10 complete control)
QUANTITY_KIND: Ducksalad plant response rating
Answer as a number with no unit attached.

Write down measured Ducksalad plant response rating (duck salad) for this compound. `CCc1nc(C)c(Cn2c(=O)on(C(=O)N(c3ccc(Cl)cc3)C(C)C)c2=O)s1`
0

Please look at `CC(C)N(C(=O)n1oc(=O)n(CC2CC2)c1=O)c1ccccc1` and tell me its recorded Ducksalad plant response rating on duck salad.
2

Look up duck salad data: Ducksalad plant response rating of `CC(C)N(C(=O)n1oc(=O)n(CCC(=O)N(C)C)c1=O)c1ccccc1` , then report it.
0

State, for duck salad, measured Ducksalad plant response rating of the compound listed here: `CCCCCn1c(=O)on(C(=O)N(c2ccc(Cl)cc2)C(C)C)c1=O`
0
